Provenance of the data: ChEMBL document CHEMBL5058577

- System: HEK-293T
- protocol-summary: Multiplex assay against HEK293T
- Type: toxicity, cell-based
- measurement-context: human, 48 h, 10 µM, compound concentration 10 uM, replicate 2
Entry flag: yes (1) if Population Pyknosed Nuclei (%) reaches 6%; no (0) if it does not.

>>> class_name("CSc1nc(NC2CCCC2)c([N+](=O)[O-])c(NC2CCCC2)n1 [GS-39783]")
"yes (1)"
>>> class_name("CCn1c(-c2nc3cc(C(=O)N4CCCC(N)C4)ccc3n2C)cc2ccccc21.Cl (stereo not drawn)")
"yes (1)"
>>> class_name("Cl.Cl.OCCOCCN1CCN(C(c2ccccc2)c2ccc(Cl)cc2)CC1 (stereo not drawn) [HYDROXYZINE HYDROCHLORIDE]")
"yes (1)"
>>> class_name("CN1CCN(c2ccc(Nc3c4ccccc4nc4ccccc34)cc2)CC1.Cl.Cl.O")
"no (0)"
>>> class_name("Cc1ccc(OCC(O)C(C)NC(C)C)c2c1CCC2.Cl (stereo not drawn)")
"yes (1)"

Tell me whether Population Pyknosed Nuclei (%) is at least 6% here: COC(c1ccccc1)(c1ccccc1)[C@H](Oc1nc(C)cc(C)n1)C(=O)O [AMBRISENTAN]
no (0)

Tell me whether Population Pyknosed Nuclei (%) is at least 6% here: CCCCCCNC(=O)Nc1ccc(S(=O)(=O)Nc2ccc(CCNC[C@H](O)COc3ccc(O)cc3)cc2)cc1 [L-755507]
no (0)

Tell me whether Population Pyknosed Nuclei (%) is at least 6% here: COc1ccc2[nH]c(I)c(CCNC(C)=O)c2c1 [IODOMELATONIN]
yes (1)

Tell me whether Population Pyknosed Nuclei (%) is at least 6% here: O=C(O)CCC/C=C\CC1C(O)CC(O)C1/C=C/C(O)COc1cccc(Cl)c1 (stereo not drawn) [CLOPROSTENOL]
no (0)

Tell me whether Population Pyknosed Nuclei (%) is at least 6% here: CC(C)C[C@H](CO)Nc1nc(S[C@@H](C)c2ccccc2)nc2nc(N)sc12 [AZD-8797]
yes (1)

Tell me whether Population Pyknosed Nuclei (%) is at least 6% here: COc1cc(Nc2ncc3c(n2)-c2ccc(Cl)cc2C(c2c(F)cccc2OC)=NC3)ccc1C(=O)O [ALISERTIB]
yes (1)

---

- Tested on: HEK-293T
- protocol-summary: Multiplex assay against HEK293T
- Assay type: toxicity, cell-based
- measurement-context: human, 48 h, 10 µM, compound concentration 10 uM, replicate 2
The entries below come with measured Population Mitotic Cells (%) values attached.
Numbers only here, please. The scale is %.

These solved cases illustrate the format of a correct answer.
>>> observed("CCc1nn2c(C)cc(C)nc2c1Cc1ccc(-c2nnc(C3CCNCC3)o2)cc1")
50
>>> observed("C[C@@H]1CC(=O)Nc2cccc(-c3ccc4c(c3)c(-c3cnn(C)c3)nn4C)c2N1")
57
>>> observed("CN(C)C(=O)Cn1cc(-c2ccc(-c3nnc4ccccn34)cc2)cn1")
62

Give the reported value of Population Mitotic Cells (%) for this record: Cc1cc(NC(=O)NCCN2CCC(O)(Cc3ccccc3)CC2)c2ccccc2n1
58

Give the reported value of Population Mitotic Cells (%) for this record: COc1c(Nc2ccc(S(C)(=O)=O)nc2C)ncnc1OC1CCN(C(=O)OC(C)C)CC1
56

Give the reported value of Population Mitotic Cells (%) for this record: Cc1cc(O)c(-c2ccc([C@@H](C)CN(C)C)cc2)c2c1[nH]c(=O)c1sccc12
12

Give the reported value of Population Mitotic Cells (%) for this record: O=C(O)CCC/C=C\CC1C(O)CC(O)C1/C=C/C(O)COc1cccc(Cl)c1 (centres undefined)
74

Give the reported value of Population Mitotic Cells (%) for this record: CSc1nc(NC2CCCC2)c([N+](=O)[O-])c(NC2CCCC2)n1
69

Give the reported value of Population Mitotic Cells (%) for this record: CC(C)(C)c1ccc(CSc2cnn(C(C)(C)C)c(=O)c2Cl)cc1
35

---

- Test system: Fibroblast
- protocol-summary: Multiplex assay against human fibroblast
- Assay type: toxicity, cell-based
- measurement-context: 12 h, 1 µM, compound concentration 1 uM, replicate 1
Entry flag: MET if Population Fragmented Nuclei (%) reaches 20%; NOT MET if it does not.

See these solved cases before continuing.
>>> class_name("C=CCN1C[C@H](C(=O)N(CCCN(C)C)C(=O)NCC)C[C@@H]2c3cccc4[nH]cc(c34)C[C@H]21")
"NOT MET"
>>> class_name("Cc1ccc(OCC(O)C(C)NC(C)C)c2c1CCC2.Cl (stereo not drawn)")
"NOT MET"
>>> class_name("O=c1nc2[nH]c3ccccc3nc-2c(=O)[nH]1")
"NOT MET"
>>> class_name("C[C@H](NC(=O)CNC(=O)c1cccc(Cl)c1)c1ccccc1")
"NOT MET"
>>> class_name("CC(C)(C)c1ccc(CSc2cnn(C(C)(C)C)c(=O)c2Cl)cc1")
"NOT MET"

Tell me whether Population Fragmented Nuclei (%) is at least 20% here: Cl.Cl.OCCOCCN1CCN(C(c2ccccc2)c2ccc(Cl)cc2)CC1 (stereo not drawn) [HYDROXYZINE HYDROCHLORIDE]
NOT MET

---

- Tested on: U2OS
- protocol-summary: Multiplex assay against U2OS
- Format: toxicity, cell-based
- measurement-context: human, 12 h, 10 µM, compound concentration 10 uM, replicate 2
metric-name: Population Mitotic Cells (%)
Numbers only here, please. The scale is %.

These solved cases illustrate the format of a correct answer.
>>> observed("C=CCN1C[C@H](C(=O)N(CCCN(C)C)C(=O)NCC)C[C@@H]2c3cccc4[nH]cc(c34)C[C@H]21")
35
>>> observed("CCn1c(-c2nc3cc(C(=O)N4CCCC(N)C4)ccc3n2C)cc2ccccc21.Cl (stereo not given)")
45
>>> observed("Cc1sc2c(c1C)C(c1ccc(Cl)cc1)=N[C@H](CC(=O)OC(C)(C)C)c1nnc(C)n1-2")
10
>>> observed("CN1CCN2c3ccccc3Cc3ccccc3C2C1.Cl (stereo not given) [MIANSERIN HYDROCHLORIDE]")
13
>>> observed("O=C(NCCNCC(O)COc1ccc(O)cc1)N1CCOCC1.O=C(NCCNCC(O)COc1ccc(O)cc1)N1CCOCC1.O=C(O)/C=C/C(=O)O (stereo not given) [XAMOTEROL FUMARATE]")
0
>>> observed("COCCCN1CCC(NC(=O)c2cc(Cl)c(N)c3c2OCC3)CC1 [PRUCALOPRIDE]")
52

Give the reported value of Population Mitotic Cells (%) for this record: C[C@H](NC(=O)CNC(=O)c1cccc(Cl)c1)c1ccccc1
33

Give the reported value of Population Mitotic Cells (%) for this record: Cc1cc(NC(=O)NCCN2CCC(O)(Cc3ccccc3)CC2)c2ccccc2n1
33

Give the reported value of Population Mitotic Cells (%) for this record: CC(C)C[C@H](CO)Nc1nc(S[C@@H](C)c2ccccc2)nc2nc(N)sc12
21

Give the reported value of Population Mitotic Cells (%) for this record: CC(C)(O)C(=O)N1CCN(c2ccc(C(F)(F)F)c(C3=C(c4c[nH]c5ccccc45)C(=O)NC3=O)c2)CC1
50

Give the reported value of Population Mitotic Cells (%) for this record: C[C@@H]1CC(=O)Nc2cccc(-c3ccc4c(c3)c(-c3cnn(C)c3)nn4C)c2N1
66

Give the reported value of Population Mitotic Cells (%) for this record: O=c1ccc2ccc(OCCCCN3CCN(c4cccc5sccc45)CC3)cc2[nH]1
17

Give the reported value of Population Mitotic Cells (%) for this record: COc1ccc2c(c1OCc1ccccc1)C[C@@H](C(=O)O)N(C(=O)C(c1ccccc1)c1ccccc1)C2
18

Give the reported value of Population Mitotic Cells (%) for this record: OCCCNc1cc(-c2ccnc(Nc3cccc(Cl)c3)n2)ccn1
8

Give the reported value of Population Mitotic Cells (%) for this record: Cl.Cl.OCCOCCN1CCN(C(c2ccccc2)c2ccc(Cl)cc2)CC1 (stereo not given) [HYDROXYZINE HYDROCHLORIDE]
11

Give the reported value of Population Mitotic Cells (%) for this record: O=C(O)CCC/C=C\CC1C(O)CC(O)C1/C=C/C(O)COc1cccc(Cl)c1 (stereo not given)
54

---

- Test system: Fibroblast
- protocol-summary: Multiplex assay against human fibroblast
- Format: toxicity, cell-based
- measurement-context: 24 h, 10 µM, compound concentration 10 uM, replicate 2
Define the label as True when Population Tubulin-Different-Phenotype (%) is strictly less than 60% and as False in all remaining cases.

See these solved cases before continuing.
>>> class_name("COc1c(Nc2ccc(S(C)(=O)=O)nc2C)ncnc1OC1CCN(C(=O)OC(C)C)CC1 [ADP-597]")
"False"
>>> class_name("C[C@@H]1CC(=O)Nc2cccc(-c3ccc4c(c3)c(-c3cnn(C)c3)nn4C)c2N1")
"False"
>>> class_name("CCn1c(-c2nc3cc(C(=O)N4CCCC(N)C4)ccc3n2C)cc2ccccc21.Cl (centres undefined)")
"False"
>>> class_name("COCCCN1CCC(NC(=O)c2cc(Cl)c(N)c3c2OCC3)CC1 [PRUCALOPRIDE]")
"True"
>>> class_name("CN1CCN(c2ccc(Nc3c4ccccc4nc4ccccc34)cc2)CC1.Cl.Cl.O")
"False"
>>> class_name("C[C@H](NC(=O)CNC(=O)c1cccc(Cl)c1)c1ccccc1")
"False"
>>> class_name("Cc1cc(=O)n(C)c2cc(N3C(=O)CC[C@H](NS(=O)(=O)CC(C)C)[C@H]3c3ccc(Cl)cc3)ccc12")
"False"

# strict comparison: is reported Population Tubulin-Different-Phenotype (%) < 60%? input = Nc1nc(CC(=O)Nc2ccc(CCNC[C@H](O)c3ccccc3)cc2)cs1 [MIRABEGRON]
True
